Target: C. albicans RNA polymerase II (Candida albicans, UniProt A0A1D8PUA6+Q5A8Y5)
Construct: RNA elongation assay on calf thymus DNA
Sequence (A0A1D8PUA6 1-1728): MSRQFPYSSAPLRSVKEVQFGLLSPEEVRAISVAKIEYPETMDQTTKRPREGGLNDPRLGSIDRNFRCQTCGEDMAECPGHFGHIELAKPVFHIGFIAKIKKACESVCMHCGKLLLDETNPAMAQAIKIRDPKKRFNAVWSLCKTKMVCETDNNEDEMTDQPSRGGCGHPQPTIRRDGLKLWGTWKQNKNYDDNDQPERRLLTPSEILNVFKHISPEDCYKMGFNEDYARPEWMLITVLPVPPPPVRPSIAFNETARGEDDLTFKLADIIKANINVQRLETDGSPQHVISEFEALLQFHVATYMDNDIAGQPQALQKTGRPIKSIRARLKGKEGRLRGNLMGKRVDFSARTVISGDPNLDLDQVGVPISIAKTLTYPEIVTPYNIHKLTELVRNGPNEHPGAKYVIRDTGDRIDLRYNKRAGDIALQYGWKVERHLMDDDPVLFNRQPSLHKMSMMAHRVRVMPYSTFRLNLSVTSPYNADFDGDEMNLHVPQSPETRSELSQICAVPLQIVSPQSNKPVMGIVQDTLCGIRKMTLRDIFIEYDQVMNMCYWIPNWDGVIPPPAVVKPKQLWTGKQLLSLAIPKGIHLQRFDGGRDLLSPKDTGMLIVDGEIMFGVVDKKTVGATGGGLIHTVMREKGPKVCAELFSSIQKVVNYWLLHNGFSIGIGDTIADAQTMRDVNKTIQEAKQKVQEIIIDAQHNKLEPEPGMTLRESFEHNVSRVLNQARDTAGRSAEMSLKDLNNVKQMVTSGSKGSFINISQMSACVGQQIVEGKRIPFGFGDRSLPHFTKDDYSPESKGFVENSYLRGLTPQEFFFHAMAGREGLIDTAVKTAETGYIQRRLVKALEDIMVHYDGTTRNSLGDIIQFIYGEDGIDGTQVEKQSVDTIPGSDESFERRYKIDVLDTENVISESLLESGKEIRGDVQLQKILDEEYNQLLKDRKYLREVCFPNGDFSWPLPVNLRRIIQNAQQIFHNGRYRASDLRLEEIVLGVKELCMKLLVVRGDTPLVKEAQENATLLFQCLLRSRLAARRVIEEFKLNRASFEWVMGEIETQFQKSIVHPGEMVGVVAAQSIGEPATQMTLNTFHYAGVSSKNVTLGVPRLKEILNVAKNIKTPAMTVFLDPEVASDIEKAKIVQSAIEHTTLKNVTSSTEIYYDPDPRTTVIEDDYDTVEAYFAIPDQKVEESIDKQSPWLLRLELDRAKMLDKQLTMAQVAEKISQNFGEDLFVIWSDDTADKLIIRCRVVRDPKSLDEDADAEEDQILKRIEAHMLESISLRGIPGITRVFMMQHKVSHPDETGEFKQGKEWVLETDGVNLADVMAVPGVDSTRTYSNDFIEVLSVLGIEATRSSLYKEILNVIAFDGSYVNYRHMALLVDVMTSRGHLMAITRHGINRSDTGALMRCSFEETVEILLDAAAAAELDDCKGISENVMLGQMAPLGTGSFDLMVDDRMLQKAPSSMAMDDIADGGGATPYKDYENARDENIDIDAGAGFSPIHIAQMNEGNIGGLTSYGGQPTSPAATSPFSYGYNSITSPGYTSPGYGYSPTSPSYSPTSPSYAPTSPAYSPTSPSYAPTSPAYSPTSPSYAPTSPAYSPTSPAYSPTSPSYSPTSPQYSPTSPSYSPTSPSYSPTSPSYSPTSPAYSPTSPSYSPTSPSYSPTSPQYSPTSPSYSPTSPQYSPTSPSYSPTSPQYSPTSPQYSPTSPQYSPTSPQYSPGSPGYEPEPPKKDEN
Sequence (Q5A8Y5 1-1234): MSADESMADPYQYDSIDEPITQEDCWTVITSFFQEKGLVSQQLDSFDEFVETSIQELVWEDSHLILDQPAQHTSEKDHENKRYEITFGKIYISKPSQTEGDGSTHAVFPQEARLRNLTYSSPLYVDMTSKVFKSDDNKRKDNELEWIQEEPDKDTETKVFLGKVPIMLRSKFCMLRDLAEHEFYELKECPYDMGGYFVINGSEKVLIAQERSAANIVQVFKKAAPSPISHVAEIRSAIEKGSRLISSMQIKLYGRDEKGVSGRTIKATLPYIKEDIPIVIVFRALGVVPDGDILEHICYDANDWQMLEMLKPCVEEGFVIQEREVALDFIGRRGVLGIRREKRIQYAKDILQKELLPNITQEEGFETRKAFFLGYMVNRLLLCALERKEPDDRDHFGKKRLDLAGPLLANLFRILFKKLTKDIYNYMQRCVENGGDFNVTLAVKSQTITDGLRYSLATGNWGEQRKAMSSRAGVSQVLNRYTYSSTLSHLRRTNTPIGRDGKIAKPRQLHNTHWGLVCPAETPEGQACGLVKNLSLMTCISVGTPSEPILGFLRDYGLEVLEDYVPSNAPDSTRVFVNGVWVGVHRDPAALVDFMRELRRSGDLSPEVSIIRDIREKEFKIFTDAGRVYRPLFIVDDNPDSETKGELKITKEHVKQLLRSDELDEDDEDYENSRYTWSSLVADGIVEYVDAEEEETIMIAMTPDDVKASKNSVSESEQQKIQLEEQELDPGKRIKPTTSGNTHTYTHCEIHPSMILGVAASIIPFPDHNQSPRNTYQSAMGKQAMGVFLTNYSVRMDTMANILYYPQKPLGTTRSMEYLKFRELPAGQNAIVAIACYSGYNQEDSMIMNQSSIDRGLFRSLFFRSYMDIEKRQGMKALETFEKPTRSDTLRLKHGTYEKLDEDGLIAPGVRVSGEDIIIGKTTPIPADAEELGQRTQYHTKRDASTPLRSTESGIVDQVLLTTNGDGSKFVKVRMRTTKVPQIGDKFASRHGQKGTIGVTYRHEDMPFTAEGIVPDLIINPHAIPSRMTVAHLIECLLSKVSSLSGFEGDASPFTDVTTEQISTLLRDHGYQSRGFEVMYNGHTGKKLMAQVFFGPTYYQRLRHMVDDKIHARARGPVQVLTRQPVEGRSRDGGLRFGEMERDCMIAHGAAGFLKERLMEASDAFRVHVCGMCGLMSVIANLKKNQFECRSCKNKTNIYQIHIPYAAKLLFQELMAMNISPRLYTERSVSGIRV
Assay: biochemical
Settings: Table 2; read-out: IC50 Candida pol II
So I've got a bunch of compounds here, and I need their pIC50 values.
Entry type: numeric. Quantity: pIC50, the -log10 of concentration in molar units.

IN: GET /values?readout=pIC50&item= O=C(O)c1cc(N=Nc2cccc(C(F)(F)F)c2)ccc1O [Compound 9]
OUT: 3.71

IN: So what does the record say about pIC50 for O=[N+]([O-])c1cc(C(F)(F)F)ccc1N=Nc1ccc(O)cc1 [Compound 7] ?
OUT: 3.72

IN: What value of pIC50 has been recorded for this entry: Oc1ccc(C=Cc2cccc(C(F)(F)F)c2)cc1Br [Compound 26]
OUT: 4.38

IN: Look at this compound and give its reported pIC50. Cc1cccc(N=Nc2ccc(O)cc2)c1 [Compound 5, 4-[-2-[3-(methyl)phenyl]diazenyl]-phenol]
OUT: 4.05
